- test_system: hM1 (Homo sapiens, UniProt P11229)
- Sequence (P11229 1-460): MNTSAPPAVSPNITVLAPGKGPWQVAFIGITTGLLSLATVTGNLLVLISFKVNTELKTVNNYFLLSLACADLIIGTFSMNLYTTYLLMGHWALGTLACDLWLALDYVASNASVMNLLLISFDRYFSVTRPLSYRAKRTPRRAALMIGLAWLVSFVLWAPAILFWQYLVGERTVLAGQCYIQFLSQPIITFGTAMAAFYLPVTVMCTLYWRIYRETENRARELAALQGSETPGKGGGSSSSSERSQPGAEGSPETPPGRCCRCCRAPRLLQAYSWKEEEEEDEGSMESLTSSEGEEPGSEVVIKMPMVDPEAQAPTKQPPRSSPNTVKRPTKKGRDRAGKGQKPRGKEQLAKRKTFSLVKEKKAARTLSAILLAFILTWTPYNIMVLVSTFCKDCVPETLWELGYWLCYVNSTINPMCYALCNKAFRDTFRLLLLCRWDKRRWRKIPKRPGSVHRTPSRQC
- Assay type: cell-based
- experimental_setup: SAR discussion of Table 1 analogs

{"compound": "CN(C)CCN(C)C(=O)C(Cc1ccccc1)c1ccccc1 (stereo not drawn)", "hM1 antagonist activity in words": "large losses in potency"}
{"compound": "CN(C)CCNC(=O)C(Cc1ccccc1)c1ccccc1 (stereo not drawn)", "hM1 antagonist activity in words": "large losses in potency"}
